Test system: A549
Test: NCI tumour cell line growth inhibition, 48 h
Calls of active or inactive are those of the source. Rule as the data show it: active = GI50 up to about 1.1 µM and inactive = higher.
Outcome codes: yes (active), no (inactive)

[[record]]
molecule = "CN(C)c1ccc(C=c2c3ccccc3n3c2cc(-c2ccc(Cl)cc2)[n+]3C)cc1"
label_class = "yes"

[[record]]
molecule = "C=C1C2CCC3(CCC4C5(C)CCCC4(C=[N+](CCO)C5)C3C2)C1O (stereo not given)"
label_class = "no"

[[record]]
molecule = "COC(=O)n1c(CBr)c(Br)c2ccccc21"
label_class = "no"

[[record]]
molecule = "CC(=O)C1=C(C)N2C(=NC3=C(CCc4ccccc43)C2c2cccc(Br)c2)S1 (stereo not given)"
label_class = "no"

[[record]]
molecule = "Cc1ccc(S(=O)(=O)OC2CC=CC2)cc1"
label_class = "no"

[[record]]
molecule = "Cn1c(=O)n2n(c1=O)C1C(=CC2)C2C=CC1n1c(=O)n(C)c(=O)n12 (stereo not given)"
label_class = "no"

[[record]]
molecule = "CN(C)c1nc(N(C)C)nc(N(C)C23CC4CC(CC(C4)C2)C3)n1"
label_class = "no"

[[record]]
molecule = "O=C(C1OC1c1ccc(Br)cc1O)C12CC3CC(CC(C3)C1)C2 (stereo not given)"
label_class = "no"

[[record]]
molecule = "CC(C)(O)C1OCC(C2CCC3(C)C4=CCC5C(C)(C)C(O)CCC5(C)C4CCC23C)CC1O (stereo not given)"
label_class = "no"

[[record]]
molecule = "COC(=O)/C(C#N)=C(\\Nc1ccccc1)N1CCCC1"
label_class = "no"

